These measurements were taken from patent US9029337B2.

System: human Factor 7 mRNA
ASSAY_PROTOCOL: Dose-dependent antisense inhibition of human Factor 7 in HepB3 cells, electroporation
Assay type: cell-based
CONDITION_SET: 100 μM, approx. 16 hours (Table 16, Example 8 confirmation)
Protocol: The gapmers were also transfected via electroporation and their dose-dependent inhibition of human Factor 7 mRNA was measured. […] After a treatment period of approximately 16 hours, RNA was isolated from the cells and Factor 7 mRNA levels were measured by quantitative real-time PCR. […] Factor 7 mRNA levels were adjusted according to total RNA content, as measured by RIBOGREEN®. […]
Strand notation (5' to 3'): a small letter for the sugar, then the base; units joined by * are phosphorothioate-linked, units joined directly phosphodiester-linked; [ ] holds rarer units or linkages, { } end groups; capitals alone tell only the bases. e = 2'-O-(2-methoxyethyl) (MOE); [5mC] = 5-methylcytosine; d = 2'-deoxy (DNA)
Reported percent inhibition of Factor 7 mRNA, relative to untreated control cells values for the following substances.
ENDPOINT: percent inhibition of Factor 7 mRNA, relative to untreated control cells (%)

SUBSTANCE | TESTED_ON | UNITS_SYMBOL | MEASUREMENT
422292 (antisense eG*eT*dT*d[5mC]*dT*dG*d[5mC]*dA*dG*dG*dA*dG*d[5mC]*dG*dG*e[5mC]*e[5mC]*eT*eA*eA) [compound 422292] | human Factor 7 mRNA | % | 83
422183 (antisense eG*e[5mC]*eG*d[5mC]*d[5mC]*dA*d[5mC]*d[5mC]*d[5mC]*dG*d[5mC]*d[5mC]*dG*dG*d[5mC]*dT*d[5mC]*eT*eG*e[5mC]) [compound 422183] | human Factor 7 mRNA | % | 71
407939 (antisense eT*eG*e[5mC]*eA*eG*d[5mC]*d[5mC]*d[5mC]*dG*dG*d[5mC]*dA*d[5mC]*d[5mC]*d[5mC]*eA*eG*e[5mC]*eG*eA) [compound 407939] | human Factor 7 mRNA | % | 83

====

Tested on: human Factor 7 mRNA
ASSAY_PROTOCOL: Dose-dependent antisense inhibition of human Factor 7 in HepB3 cells, lipofectin
Type: cell-based
CONDITION_SET: 100 nM, HepB3 cells, approx. 16 hours (Table 14)
Strand notation (5' to 3'): a small letter for the sugar, then the base; units joined by * are phosphorothioate-linked, units joined directly phosphodiester-linked; [ ] holds rarer units or linkages, { } end groups; capitals alone tell only the bases. e = 2'-O-(2-methoxyethyl) (MOE); [5mC] = 5-methylcytosine; d = 2'-deoxy (DNA)
percent inhibition of Factor 7 mRNA, relative to untreated control cells: recorded values
ENDPOINT: percent inhibition of Factor 7 mRNA, relative to untreated control cells (%)

SUBSTANCE | UNITS_SYMBOL | MEASUREMENT
422295 (antisense e[5mC]*eG*dA*dG*dT*dT*d[5mC]*dT*dG*d[5mC]*dA*dG*dG*dA*dG*e[5mC]*eG*eG*e[5mC]*e[5mC]) [compound 422295] | % | 85
407939 (antisense eT*eG*e[5mC]*eA*eG*d[5mC]*d[5mC]*d[5mC]*dG*dG*d[5mC]*dA*d[5mC]*d[5mC]*d[5mC]*eA*eG*e[5mC]*eG*eA) [compound 407939] | % | 83
422229 (antisense eA*eT*dG*d[5mC]*dA*dT*dG*dG*dT*dG*dA*dT*dG*d[5mC]*dT*eT*e[5mC]*eT*eG*eA) [compound 422229] | % | 92
422252 (antisense e[5mC]*eG*d[5mC]*d[5mC]*dG*dG*d[5mC]*dT*d[5mC]*dT*dG*d[5mC]*dT*d[5mC]*dA*eT*e[5mC]*e[5mC]*e[5mC]*e[5mC]) [compound 422252] | % | 87
422296 (antisense e[5mC]*e[5mC]*dG*dA*dG*dT*dT*d[5mC]*dT*dG*d[5mC]*dA*dG*dG*dA*eG*e[5mC]*eG*eG*e[5mC]) [compound 422296] | % | 82
